Reference for the values: patent EP3720857B1

# Tested on: hepatitis virus B (HBV) infection
# Test: iCell hepatocytes assay, standard assay (HBc staining, HBe ELISA, HBs ELISA)
# Assay type: cell-based
# Test Parameters: Hepatitis B virus, Hepatocyte
pEC50: −log10 of the molar value.
Each entry below lists one item and its recorded pEC50 value.

Below: 5 molecules and their reported pEC50.
Molecule	pEC50
COCCCOc1cc2c(cc1F)-c1c(cc(C(=O)O)c(=O)n1C1CC1)C(C(C)C)O2 (stereo not drawn) [Compound 1]	7.70 to 12.00
COCCCOc1cc2c(cc1F)-c1c(cc(C(=O)O)c(=O)n1C1CC1)[C@H](C(C)C)O2 [Compound 44]	7.30 to 7.66
COCCCOc1cc2c(cc1Cl)-c1c(cc(C(=O)O)c(=O)n1C1CC1)C(C(C)(C)COC)O2 (stereo not drawn) [Compound 19]	7.30 to 7.66
COCCCOc1cc2c(cc1Cl)-c1c(cc(C(=O)O)c(=O)n1C1CC1)CO2 [Compound 6]	7.70 to 12.00
CCC1Oc2cc(OCCCOC)c(F)cc2-c2c1cc(C(=O)O)c(=O)n2C1CC1 (stereo not drawn) [Compound 16]	7.30 to 7.66

Here is another molecule to look at.
Recorded pEC50 of COCCCOc1cc2c(cc1Cl)-c1c(cc(C(=O)O)c(=O)n1C1CC1)[C@H](C1(C)COC1)O2 [Compound 46] , please.
7.70 to 12.00
